# target_system: Neutrophil elastase (Homo sapiens, UniProt P08246)
# Sequence (P08246 whole entry): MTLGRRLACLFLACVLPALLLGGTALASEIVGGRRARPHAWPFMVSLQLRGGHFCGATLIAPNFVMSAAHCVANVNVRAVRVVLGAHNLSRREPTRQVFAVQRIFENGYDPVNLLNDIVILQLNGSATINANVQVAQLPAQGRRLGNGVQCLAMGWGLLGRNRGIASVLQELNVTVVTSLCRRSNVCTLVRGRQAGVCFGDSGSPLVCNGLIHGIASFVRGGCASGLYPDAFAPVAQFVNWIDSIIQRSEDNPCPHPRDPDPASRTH
# test_protocol: Inhibition of human neutrophil elastase pre-incubated for 30 mins before MeO-Suc-Ala-Ala-Pro-Val-AMC substrate addition by fluorometric assay

[
  {
    "smiles_repr": "CN(C)c1ccc(/C=C2\\Oc3cc(O)ccc3C2=O)cc1",
    "target_system": "Neutrophil elastase (Homo sapiens, UniProt P08246)",
    "unit_spec": "µM",
    "bound_type": "=",
    "IC50": 5.1
  },
  {
    "smiles_repr": "O=C1/C(=C/c2cccc(Br)c2)Oc2ccccc21",
    "target_system": "Neutrophil elastase (Homo sapiens, UniProt P08246)",
    "unit_spec": "µM",
    "bound_type": ">",
    "IC50": 10
  },
  {
    "smiles_repr": "CN(C)c1ccc(/C=C2\\Oc3ccccc3C2=O)cc1",
    "target_system": "Neutrophil elastase (Homo sapiens, UniProt P08246)",
    "unit_spec": "µM",
    "bound_type": "=",
    "IC50": 2.9
  },
  {
    "smiles_repr": "Cc1ccc(Oc2ccc(/C=C3\\Oc4ccccc4C3=O)cc2)cc1",
    "target_system": "Neutrophil elastase (Homo sapiens, UniProt P08246)",
    "unit_spec": "µM",
    "bound_type": ">",
    "IC50": 10
  }
]

FYI, the data here is from ChEMBL document CHEMBL3751722.
